# test target: TREK-1 channel (Homo sapiens)
# Sequence (O95069 1-426): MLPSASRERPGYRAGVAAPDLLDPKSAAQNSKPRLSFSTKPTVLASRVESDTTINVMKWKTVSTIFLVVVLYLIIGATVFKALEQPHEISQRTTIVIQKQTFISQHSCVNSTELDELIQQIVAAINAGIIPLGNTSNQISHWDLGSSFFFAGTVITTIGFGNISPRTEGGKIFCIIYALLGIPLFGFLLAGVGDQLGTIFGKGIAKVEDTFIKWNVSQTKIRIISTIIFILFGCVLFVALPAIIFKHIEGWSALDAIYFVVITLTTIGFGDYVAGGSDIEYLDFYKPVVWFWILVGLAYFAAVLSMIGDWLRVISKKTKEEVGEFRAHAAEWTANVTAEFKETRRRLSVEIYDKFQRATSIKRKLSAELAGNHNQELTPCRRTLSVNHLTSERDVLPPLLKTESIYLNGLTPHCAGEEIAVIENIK
# protocol description: Whole-cell patch clamp of TREK-1 channel activity in hTREK-1/HEK293 cells
# Type: cell-based
# Parameters: expressed in transfected cells
# applied conditions: dose-response measured at 0 mV, sigmoidal fit, FIG. 2; read-out: half-effect concentration (IC50) of TREK-1 channel activity inhibition
Where no end group is shown, it is not given here.
endpoint label: IC50 (nM)
Report the figure in nM without appending any unit label.

Sample AVSWGLR [G/A-PE(22-28), AVSWGLR] — what was its IC50?
0.12
